The reported measurements were obtained from patent US20210276987A1.

# Assayed system: UGT2B10 (Homo sapiens)
# Test description: biochemical
# Particulars: IC50 against UGT2B10; little to no inhibition
Measured quantity: IC50

In: Give IC50 for NCC#Cc1cnc2ccccc2c1
Out: > 1000 µM

====

# Assayed system: UGT2B10 (Homo sapiens)
# Sequence (P36537 24-528): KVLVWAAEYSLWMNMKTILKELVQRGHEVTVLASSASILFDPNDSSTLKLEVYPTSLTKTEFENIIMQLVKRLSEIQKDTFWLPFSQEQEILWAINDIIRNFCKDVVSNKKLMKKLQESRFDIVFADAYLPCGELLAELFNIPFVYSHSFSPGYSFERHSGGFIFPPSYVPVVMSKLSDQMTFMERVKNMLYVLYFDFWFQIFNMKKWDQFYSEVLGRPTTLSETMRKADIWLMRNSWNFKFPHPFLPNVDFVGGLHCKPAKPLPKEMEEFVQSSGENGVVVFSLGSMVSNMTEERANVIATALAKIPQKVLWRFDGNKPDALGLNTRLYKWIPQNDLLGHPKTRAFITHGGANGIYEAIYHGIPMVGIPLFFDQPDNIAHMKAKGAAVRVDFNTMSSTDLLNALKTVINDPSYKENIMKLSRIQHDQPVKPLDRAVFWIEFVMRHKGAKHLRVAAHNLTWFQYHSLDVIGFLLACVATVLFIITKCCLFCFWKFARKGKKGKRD
# Test description: biochemical
# Particulars: IC50 against UGT2B10 (μM)
For each entry below, report its IC50 value.

Here are 2 molecules together with their reported answers.
CCc1ccncc1C#CCN [Compound H, 3-(4-ethylpyridin-3-yl)prop-2-yn-1-amine] : > 1000 µM
Cc1ccncc1C#CCN [Compound C] : 58 µM

We next turn to a different molecule, shown below.
In: Given Cc1cncc(C#CCN)c1 [Compound D] , respond with its IC50.
Out: > 1000 µM
